Listed sequences paired with reported PBM E-score of 8-mer
System: PmTbr T-box DNA-binding domain (GST fusion);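 note: 200 nM protein in PBS on universal arrays averaged over duplicate arrays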
Sequence: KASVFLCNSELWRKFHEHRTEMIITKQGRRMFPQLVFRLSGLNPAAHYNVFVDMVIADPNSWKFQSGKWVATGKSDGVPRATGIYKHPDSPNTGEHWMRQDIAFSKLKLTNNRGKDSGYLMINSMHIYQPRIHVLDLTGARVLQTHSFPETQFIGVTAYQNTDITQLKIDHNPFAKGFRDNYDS
Experiment: PBM E-score of 8-mer (E-score (dimensionless, -0.5 to 0.5)); Tbr is Tbrain of the sea star Patiria miniata (Pm) or the sea urchin Strongylocentrotus purpuratus (Sp); higher = stronger binding preference
Settings: the construct has about 5 more residues each side
Over roughly 33,000 sequences, “E-score (dimensionless, -0.5 to 0.5)” has its median near -0.049; the highest 2% begin near 0.37. The list comes from a sample in which the highest values are over-represented; it also holds close analogues and randomly drawn sequences.

# chain, PBM E-score of 8-mer
records = [
    ("ATTCGCAC", 0.478),
    ("TTGCCAAA", 0.11),
    ("ACTTGTAA", 0.0472),
    ("AAATTCAC", 0.263),
    ("ATTCGCAG", 0.297),
    ("ATATGGCC", -0.235),
    ("CCGCTAGA", 0.0332),
    ("GTCAAAAA", 0.0926),
    ("CTGCCAAC", 0.0539),
    ("CTCTCTGA", -0.253),
    ("TCAGTCGA", -0.0383),
]
